- assay_system: T1, EsCas13d, nuclease-dead (Eubacterium siraeum, UniProt B0MS50, R295A;H300A;R849A;H854A)
- T1 sequence: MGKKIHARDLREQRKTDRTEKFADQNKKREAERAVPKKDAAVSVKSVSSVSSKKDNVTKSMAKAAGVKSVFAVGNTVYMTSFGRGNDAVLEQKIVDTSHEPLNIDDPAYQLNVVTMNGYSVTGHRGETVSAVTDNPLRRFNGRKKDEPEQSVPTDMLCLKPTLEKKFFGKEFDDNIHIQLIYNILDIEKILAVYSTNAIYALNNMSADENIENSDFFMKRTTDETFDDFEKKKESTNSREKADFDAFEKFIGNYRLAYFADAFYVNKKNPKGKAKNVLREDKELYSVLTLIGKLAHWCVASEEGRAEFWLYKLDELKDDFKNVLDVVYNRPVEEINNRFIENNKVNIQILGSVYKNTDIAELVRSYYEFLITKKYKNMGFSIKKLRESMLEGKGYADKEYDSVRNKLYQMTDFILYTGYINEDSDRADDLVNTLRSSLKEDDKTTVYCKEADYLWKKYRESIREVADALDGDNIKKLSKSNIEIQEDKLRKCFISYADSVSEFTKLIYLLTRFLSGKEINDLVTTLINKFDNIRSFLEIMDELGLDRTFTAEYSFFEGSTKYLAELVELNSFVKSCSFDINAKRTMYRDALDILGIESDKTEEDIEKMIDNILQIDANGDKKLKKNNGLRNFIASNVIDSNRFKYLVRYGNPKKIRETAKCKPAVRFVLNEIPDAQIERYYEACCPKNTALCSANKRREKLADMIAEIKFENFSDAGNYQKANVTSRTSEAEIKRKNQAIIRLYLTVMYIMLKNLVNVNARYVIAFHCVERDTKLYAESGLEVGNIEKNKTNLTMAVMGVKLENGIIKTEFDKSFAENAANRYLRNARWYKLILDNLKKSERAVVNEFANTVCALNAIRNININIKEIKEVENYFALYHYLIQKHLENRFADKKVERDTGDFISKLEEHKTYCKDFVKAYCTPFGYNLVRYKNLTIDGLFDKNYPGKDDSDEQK
- assay_summary: crRNA (strand 1, pre-loaded); Mg2+; 40 mM Tris-HCl pH 7.5, 150 mM NaCl, 6 mM MgCl2, 1 mM DTT, 0.1% Tween-20, 0.2 mg/ml BSA; 25 C; 10 min per concentration, then washed
- cond: tags: His6-TwinStrep-SUMO cleaved; N-terminal SNAP kept (SNAP-Surface 488); label: 3' end held by stalled T7 RNA polymerase
pKd: −log10 of the molar value.
endpoint_label: pKd

- target 1 MT 5'PFS AAA 3'PFS ACG (mixed) RNA 1: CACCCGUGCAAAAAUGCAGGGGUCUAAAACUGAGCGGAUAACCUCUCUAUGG RNA 2: GGGAAUGGAUCCACAUCUACGAAUUCAAACCAUAGAGAGGUUAUCCGCUCAACGAGAUCGGAAGAGCACACGU: 7.73
- target 1 MT 5'PFS AAA 3'PFS ACC (mixed) RNA 1: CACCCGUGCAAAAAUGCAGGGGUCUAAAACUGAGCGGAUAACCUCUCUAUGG RNA 2: GGGAAUGGAUCCACAUCUACGAAUUCAAACCAUAGAGAGGUUAUCCGCUCAACCAGAUCGGAAGAGCACACGU: 7.38
- target 1 C2U (mixed) RNA 1: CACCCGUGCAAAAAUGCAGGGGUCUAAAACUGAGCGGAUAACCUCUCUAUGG RNA 2: GGGAAUGGAUCCACAUCUACGAAUUCGUACCAUAGAGAGGUUAUCCGCUUACCGAGAUCGGAAGAGCACACGU: 8.01
- target 2 MT 5'PFS CAG 3'PFS UGA (mixed) RNA 1: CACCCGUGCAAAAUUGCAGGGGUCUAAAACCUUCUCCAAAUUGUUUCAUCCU RNA 2: GGGAAUGGAUCCACAUCUACGAAUUCCAGAGGAUGAAACAAUUUGGAGAAGUGAAGAUCGGAAGAGCACACGU: 8.17
- target 1 insU 3' of 9,insU 3' of 6 (mixed) RNA 1: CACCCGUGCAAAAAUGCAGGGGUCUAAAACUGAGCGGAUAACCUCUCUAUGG RNA 2: GGGAAUGGAUCCACAUCUACGAAUUCGUACCAUAGAGAGGUUAUUCCUGCUCACCGAGAUCGGAAGAGCACACGU: 7.34
- target 1 insU 3' of 13,insG 3' of 6 (mixed) RNA 1: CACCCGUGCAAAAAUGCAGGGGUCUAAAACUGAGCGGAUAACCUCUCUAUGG RNA 2: GGGAAUGGAUCCACAUCUACGAAUUCGUACCAUAGAGAGUGUUAUCCGGCUCACCGAGAUCGGAAGAGCACACGU: 7.60
- target 1 MT 5'PFS GGA 3'PFS UAU (mixed) RNA 1: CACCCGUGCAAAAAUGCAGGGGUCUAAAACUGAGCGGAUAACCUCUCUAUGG RNA 2: GGGAAUGGAUCCACAUCUACGAAUUCGGACCAUAGAGAGGUUAUCCGCUCAUAUAGAUCGGAAGAGCACACGU: 7.93
- target 1 C6U,A20C (mixed) RNA 1: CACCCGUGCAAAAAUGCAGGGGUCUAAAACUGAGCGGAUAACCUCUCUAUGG RNA 2: GGGAAUGGAUCCACAUCUACGAAUUCGUACCCUAGAGAGGUUAUCUGCUCACCGAGAUCGGAAGAGCACACGU: 7.00
